- testSystem: Substance-P receptor (Homo sapiens, UniProt P25103)
- Sequence (P25103 whole entry): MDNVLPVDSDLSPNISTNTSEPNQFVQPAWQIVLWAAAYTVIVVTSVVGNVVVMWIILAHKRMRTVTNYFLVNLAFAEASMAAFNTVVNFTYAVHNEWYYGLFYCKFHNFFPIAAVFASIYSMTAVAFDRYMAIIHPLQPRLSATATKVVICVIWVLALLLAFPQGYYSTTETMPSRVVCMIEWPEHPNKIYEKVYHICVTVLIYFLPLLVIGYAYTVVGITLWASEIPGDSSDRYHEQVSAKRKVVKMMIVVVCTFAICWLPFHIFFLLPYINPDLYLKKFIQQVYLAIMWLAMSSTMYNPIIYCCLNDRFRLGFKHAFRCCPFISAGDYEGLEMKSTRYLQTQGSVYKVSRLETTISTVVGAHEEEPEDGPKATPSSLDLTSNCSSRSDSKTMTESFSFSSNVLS
- assayMethodText: Inhibitory activity against Tachykinin receptor 1 in human IM-9 cells using [125I]-labeled Boltan-Hunter substance P as radioligand
property: IC50 (nM)

Examples with their reported IC50 follow.
compound	IC50 (nM)
COC(=O)CC(=O)N(Cc1ccccc1OC)CC(Cc1c[nH]c2ccccc12)NC(=O)CN1CCN(c2ccccc2)CC1 (stereo not given)	1.28
COc1ccccc1CN(CC(Cc1c[nH]c2ccccc12)NC(=O)CN1CCN(C)CC1)C(C)=O (stereo not given)	5.3

[a] CC(=O)N(Cc1ccccc1[N+](=O)[O-])CC(Cc1c[nH]c2ccccc12)NC(=O)CN1CCN(c2ccccc2)CC1 (stereo not given)
[b] COc1ccccc1CN(CC(Cc1c[nH]c2ccccc12)NC(=O)CN1CCN(c2ccccc2)CC1)C(=O)c1ccccc1 (stereo not given)
Lab notebook, comparison: a versus b , higher IC50 goes to which? Output the label that corresponds to your choice. a
(a: 3 nM, b: 2 nM)

###

- testSystem: UniProtKB P25103
- assayMethodText: Inhibitory activity against Tachykinin receptor 1 in human IM-9 cells using [125I]-labeled Boltan-Hunter substance P as radioligand
property: IC50 (nM)

compound	u	IC50
CCN(Cc1ccccc1OC)CC(Cc1c[nH]c2ccccc12)NC(=O)CN1CCN(c2ccccc2)CC1 (stereo unspecified)	nM	85
COc1ccc(CN(CC(Cc2c[nH]c3ccccc23)NC(=O)CN2CCN(c3ccccc3)CC2)C(C)=O)cc1 (stereo unspecified)	nM	2.5
COc1ccccc1CN(CC(Cc1c[nH]c2ccccc12)NC(=O)CN1CCN(Cc2ccccc2)CC1)C(C)=O (stereo unspecified)	nM	0.98
COc1ccccc1CN(CC(Cc1c[nH]c2ccccc12)NC(=O)CN1CCC(N(C)C)CC1)C(C)=O (stereo unspecified)	nM	2.8
COc1ccccc1CN(CC(CC1CNc2ccccc21)NC(=O)CN1CCN(c2ccccc2)CC1)C(C)=O (stereo unspecified)	nM	27.4
CSc1ccccc1CN(CC(Cc1c[nH]c2ccccc12)NC(=O)CN1CCN(c2ccccc2)CC1)C(C)=O (stereo unspecified)	nM	7.2
COc1ccccc1CN(CC(Cc1c[nH]c2ccccc12)NC(=O)CN1CCC(c2ccccc2)CC1)C(C)=O (stereo unspecified)	nM	4.5
COc1ccccc1CN(CC(Cc1csc2ccccc12)NC(=O)CN1CCN(c2ccccc2)CC1)C(C)=O (stereo unspecified)	nM	1.18
COc1ccccc1CN(C[C@H](Cc1c[nH]c2ccccc12)NC(=O)CN1CCN(C2CCCCC2)CC1)C(C)=O	nM	80.9
COc1ccccc1CN(CC(Cc1ccc2ccccc2c1)NC(=O)CN1CCN(c2ccccc2)CC1)C(C)=O (stereo unspecified)	nM	11

[A] CC(=O)N(Cc1ccccc1C(F)(F)F)CC(Cc1c[nH]c2ccccc12)NC(=O)CN1CCN(c2ccccc2)CC1 (stereo unspecified)
[B] CC(=O)N(CC1CCCCC1)CC(Cc1c[nH]c2ccccc12)NC(=O)CN1CCN(c2ccccc2)CC1 (stereo unspecified)
Could you determine which record has the numerically smaller IC50? Candidates: A and B Output the label that corresponds to your choice. A

###

- testSystem: Substance-P receptor (Homo sapiens, UniProt P25103)
- assayMethodText: Inhibitory activity against Tachykinin receptor 1 in human IM-9 cells using [125I]-labeled Boltan-Hunter substance P as radioligand
property: IC50 (nM)

[A] COc1ccccc1CN(CC(Cc1c[nH]c2ccccc12)NC(=O)CN1CCN(c2ccccc2)CC1)S(C)(=O)=O (centres undefined)
[B] COc1ccccc1CN(CC(Cc1c[nH]c2ccccc12)NC(=O)CN1CCN(C2CCCCC2)CC1)C(C)=O (centres undefined)
[C] CC(=O)N(CCc1ccccc1)CC(Cc1c[nH]c2ccccc12)NC(=O)CN1CCN(c2ccccc2)CC1 (centres undefined)
I would appreciate it if you could sort these 3 compounds by IC50, starting from the smallest number. Could you list the labels in the order requested? B, A, C

[P] CC(=O)N(Cc1ccccc1C)CC(Cc1c[nH]c2ccccc12)NC(=O)CN1CCN(c2ccccc2)CC1 (centres undefined)
[Q] CCOC(=O)N(Cc1ccccc1OC)CC(Cc1c[nH]c2ccccc12)NC(=O)CN1CCN(c2ccccc2)CC1 (centres undefined)
Lab notebook, comparison: P versus Q , higher IC50 goes to which? Output the label that corresponds to your choice. Q
